Molecular target: Bem1-2, P29366
Sequence (P29366 139-227): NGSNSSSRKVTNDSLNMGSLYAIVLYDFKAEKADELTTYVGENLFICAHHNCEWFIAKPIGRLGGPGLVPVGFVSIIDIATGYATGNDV
Assay: SPOT array
Details: median of control spots 4347
Measured Endpoint: SPOT intensity

Answered cases to consult:
>>> print(df.to_string())
            binder  recorded_measurement
0  VTHRLRISIPGITGR                     4
1  ITHRLRISIPGITGR                     6

1: NSMRPPLLIPAATTK
2: RPPRPPPKPLHLRTE
3: LSKRLPLRFPEHTSS
4: MKRSRPSRSIPYTTP
5: GQYRRTIVIPRRFFT
Reorder the items by SPOT intensity, least to greatest. Hello, could you send the labels back in the order asked? Thank you. 3, 1, 5, 4, 2
(3: 4, 1: 6, 5: 17, 4: 39, 2: 458)
